Assay: Partition coefficient (logP)
Settings: octanol/water
measured-parameter: logP

>>> print(df.to_string())
                                   compound  data_value
0  CC(=O)CCCCn1c(=O)c2c(ncn2C)n(C)c1=O [PENTOXIFYLLINE]        0.29
1  NC(=O)N1c2ccccc2C=Cc2ccccc21 [CARBAMAZEPINE]        2.19
2  CN1C(=O)C(O)N=C(c2ccccc2Cl)c2cc(Cl)ccc21 (stereo not given) [LORMETAZEPAM]        2.72
3        CC(=O)Nc1ccc(O)cc1 [ACETAMINOPHEN]        0.51
4  O=[N+]([O-])c1ccc(/C=N/O)o1 [NIFUROXIME]        1.28
5                         Oc1cc(Cl)cc(Cl)c1        3.68
6  Cc1cccc(N(C)C(=S)Oc2ccc3ccccc3c2)c1 [TOLNAFTATE]         5.4
7  CS(=O)(=O)c1ccc([C@@H](O)[C@@H](CO)NC(=O)C(Cl)Cl)cc1 [THIAMPHENICOL]       -0.27
8  O=C1CN=C(c2ccccn2)c2cc(Br)ccc2N1 [BROMAZEPAM]        1.65
9  CC(=O)OCC(=O)[C@@]1(O)CC[C@H]2[C@@H]3CCC4=CC(=O)CC[C@]4(C)[C@H]3[C@@H](O)C[C@@]21C [HYDROCORTISONE ACETATE]        2.19

* * *

Overview of recorded Log k'w for various molecules
measured-parameter: Log k'w

>>> print(df.to_string())
                                   molecule  measured_parameter  data_value
0  C[C@@H]1C[C@H]2[C@@H]3CCC4=CC(=O)C=C[C@]4(C)[C@@]3(F)[C@@H](O)C[C@]2(C)[C@@]1(O)C(=O)CO             Log k'w        2.03
1  CSc1ncnc2c1ncn2[C@@H]1O[C@H](CO)[C@@H](O)[C@H]1O             Log k'w        0.19
2       CC/C(=C(/CC)c1ccc(O)cc1)c1ccc(O)cc1             Log k'w        4.16
3                            c1ccc2ccccc2c1             Log k'w        3.06
4         NC(=O)N/N=C/c1ccc([N+](=O)[O-])o1             Log k'w         0.1
5  CS(=O)(=O)c1ccc([C@@H](O)[C@@H](CO)NC(=O)C(Cl)Cl)cc1             Log k'w       -0.24
6  C[C@]12CC[C@H]3[C@@H](CCC4=CC(=O)CC[C@@]43C)[C@@H]1CC[C@@H]2O             Log k'w        2.74
7  CC(=O)OCC(=O)[C@@]1(O)CC[C@H]2[C@@H]3CCC4=CC(=O)CC[C@]4(C)[C@H]3[C@@H](O)C[C@@]21C [HYDROCORTISONE ACETATE]             Log k'w        1.93

* * *

Experiment: Partition coefficient (logP) (HPLC)
Details: octanol/water
Measured logP, listed per entry.
measured-parameter: logP

                                    molecule  data_value
 0  O=C1Nc2ccc(Cl)cc2C(c2ccccc2Cl)=NC1O (centres undefined) [LORAZEPAM]        2.74
 1  CS(=O)(=O)c1ccc([C@@H](O)[C@@H](CO)NC(=O)C(Cl)Cl)cc1 [THIAMPHENICOL]       -0.13
 2  O=[N+]([O-])c1ccc(/C=N/O)o1 [NIFUROXIME]        1.36
 3  C[C@@H]1C[C@H]2[C@@H]3CCC4=CC(=O)C=C[C@]4(C)[C@@]3(F)[C@@H](O)C[C@]2(C)[C@@]1(O)C(=O)CO [DEXAMETHASONE]        2.37
 4  CC(=O)CCCCn1c(=O)c2c(ncn2C)n(C)c1=O [PENTOXIFYLLINE]        0.31
 5  CC/C(=C(/CC)c1ccc(O)cc1)c1ccc(O)cc1 [DIETHYLSTILBESTROL]        4.72
 6  C[C@]12C=CC(=O)C=C1CC[C@@H]1[C@@H]2C(=O)C[C@@]2(C)[C@H]1CC[C@]2(O)C(=O)CO [PREDNISONE]        1.47
 7  O=C1CN=C(c2ccccn2)c2cc(Br)ccc2N1 [BROMAZEPAM]        1.38
 8  CSc1ncnc2c1ncn2[C@@H]1O[C@H](CO)[C@@H](O)[C@H]1O        0.34
 9  NC(=O)N/N=C/c1ccc([N+](=O)[O-])o1 [NITROFURAZONE]        0.24
10  Cc1ncc([N+](=O)[O-])n1CCO [METRONIDAZOLE]       -0.22
11  CC(=O)OCC(=O)[C@@]1(O)CC[C@H]2[C@@H]3CCC4=CC(=O)CC[C@]4(C)[C@H]3[C@@H](O)C[C@@]21C [HYDROCORTISONE ACETATE]        2.26
12  C[C@]12C=CC(=O)C=C1CC[C@@H]1[C@@H]2[C@@H](O)C[C@@]2(C)[C@H]1CC[C@]2(O)C(=O)CO [PREDNISOLONE]        1.83
13                            c1ccc2ccccc2c1        3.51
14  C[C@]12CC[C@@H]3c4ccc(O)cc4CC[C@H]3[C@@H]1CC[C@@H]2O [ESTRADIOL]        3.82
15  NC(=O)N1c2ccccc2C=Cc2ccccc21 [CARBAMAZEPINE]        2.01
16                          Brc1cnc2ccccc2c1        2.93
17  COC1=CC(=O)C[C@@H](C)[C@]12Oc1c(Cl)c(OC)cc(OC)c1C2=O [GRISEOFULVIN]        2.57
18                c1ccc2ncccc2c1 [QUINOLINE]        1.85

* * *

Test: HPLC capacity factor (k)
Format: ADME
measured-parameter: Log K'w

>>> df
                                   compound  measured_parameter  data_value
0          O=C1CN=C(c2ccccn2)c2cc(Br)ccc2N1             Log K'w        1.13
1  O=C1Nc2ccc(Cl)cc2C(c2ccccc2Cl)=NC1O (configuration not stated)             Log K'w        2.36
2                        CC(=O)Nc1ccc(O)cc1             Log K'w       -0.02
3     Cc1cc(=O)n(-c2ccccc2)n1C [ANTIPYRINE]             Log K'w        0.09
4  NC(=O)N1c2ccccc2C=Cc2ccccc21 [CARBAMAZEPINE]             Log K'w         1.7
5                         Oc1ncnc2[nH]ncc12             Log K'w       -0.89
6                 Cc1ncc([N+](=O)[O-])n1CCO             Log K'w       -0.32
